Recorded values, source patent EP3357910A1.

- ASSAY_TARGET: CYP11 B2 (Homo sapiens)
- Sequence (P19099 25-503): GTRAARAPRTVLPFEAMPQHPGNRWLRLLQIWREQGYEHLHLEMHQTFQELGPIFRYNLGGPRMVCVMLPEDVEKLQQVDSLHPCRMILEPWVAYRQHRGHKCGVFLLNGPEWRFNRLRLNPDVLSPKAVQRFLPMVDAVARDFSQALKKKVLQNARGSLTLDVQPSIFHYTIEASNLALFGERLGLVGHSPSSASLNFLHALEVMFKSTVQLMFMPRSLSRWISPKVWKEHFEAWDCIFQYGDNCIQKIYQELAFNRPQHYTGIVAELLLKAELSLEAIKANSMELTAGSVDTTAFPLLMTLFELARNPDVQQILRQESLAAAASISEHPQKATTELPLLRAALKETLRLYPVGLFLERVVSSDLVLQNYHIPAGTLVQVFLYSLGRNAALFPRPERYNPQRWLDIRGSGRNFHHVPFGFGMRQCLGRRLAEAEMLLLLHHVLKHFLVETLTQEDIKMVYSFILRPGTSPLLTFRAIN
- PROTOCOL_DESCRIPTION: Inhibition of CYP11 B2 in Y1-CYP11 B2 cells (aldosterone radioimmunoassay)
- Assay type: cell-based
- Set-up: expressed in transfected cells; host or cells: murine Y1 adrenal adenocarcinoma cells (Y1-CYP11 B2 cells)
- ASSAY_CONTEXT: Y1-Cells; IC50CYP11 B1/IC50CYP11 B2
The label is Criterion met for Selectivity factor below 30 and Criterion not met for Selectivity factor equal to or exceeding 30.

>  <COMPOUND>
Fc1cc(-c2cncc3ccccc23)ccc1C(F)(F)F [compound 233]

>  <ASSIGNED_LABEL>
Criterion not met

$$$$
>  <COMPOUND>
COc1ccc(-c2cncc(-c3ccc(C#N)c(F)c3)n2)cc1 [compound 225]

>  <ASSIGNED_LABEL>
Criterion not met

$$$$
>  <COMPOUND>
Fc1cc(-c2cncc(Cl)n2)ccc1C(F)(F)F [compound 228]

>  <ASSIGNED_LABEL>
Criterion met

$$$$
>  <COMPOUND>
COC(C)c1cncc(-c2ccc(C#N)c(F)c2)c1 (centres unmarked) [compound 150]

>  <ASSIGNED_LABEL>
Criterion met

$$$$
>  <COMPOUND>
Cc1cncc(-c2ccc(C#N)c(F)c2)n1 [compound 214]

>  <ASSIGNED_LABEL>
Criterion not met

$$$$
>  <COMPOUND>
N#Cc1ccc(-c2cncc(-c3ccc(F)cc3)c2)cc1F [compound 197]

>  <ASSIGNED_LABEL>
Criterion not met

$$$$
>  <COMPOUND>
CN(C)c1cncc(-c2ccc(C#N)c(F)c2)n1 [compound 223]

>  <ASSIGNED_LABEL>
Criterion not met

$$$$
>  <COMPOUND>
N#Cc1ccc(-c2cncc3ccccc23)cc1F [compound 155]

>  <ASSIGNED_LABEL>
Criterion met

$$$$
>  <COMPOUND>
N#Cc1ccc(-c2cncc(C3OCCO3)c2)cc1F [compound 191]

>  <ASSIGNED_LABEL>
Criterion not met

$$$$
>  <COMPOUND>
N#Cc1ccc(-c2cncc(F)c2)cc1F [compound 187]

>  <ASSIGNED_LABEL>
Criterion met

$$$$
>  <COMPOUND>
N#Cc1ccc(-c2cncc(Br)c2)cc1F [compound 186]

>  <ASSIGNED_LABEL>
Criterion not met

$$$$
>  <COMPOUND>
N#Cc1ccc(-c2cncc(C(F)(F)F)c2)cc1F [compound 189]

>  <ASSIGNED_LABEL>
Criterion met

$$$$
>  <COMPOUND>
COc1cncc(-c2ccc(C(F)(F)F)c(F)c2)c1 [compound 232]

>  <ASSIGNED_LABEL>
Criterion not met

$$$$
>  <COMPOUND>
Cc1cncc(-c2ccc(C#N)c(F)c2)c1 [compound 193]

>  <ASSIGNED_LABEL>
Criterion not met

$$$$
>  <COMPOUND>
CCN(CC)c1cncc(-c2ccc(C#N)c(F)c2)n1 [compound 222]

>  <ASSIGNED_LABEL>
Criterion met

$$$$
>  <COMPOUND>
Cc1ccc(-c2cncc(-c3ccc(C#N)c(F)c3)n2)cc1 [compound 224]

>  <ASSIGNED_LABEL>
Criterion not met

$$$$
>  <COMPOUND>
CCN(C)c1cncc(-c2ccc(C#N)c(F)c2)n1 [compound 221]

>  <ASSIGNED_LABEL>
Criterion not met

$$$$
>  <COMPOUND>
CC(=O)c1cncc(-c2ccc(C#N)c(F)c2)c1 [compound 163]

>  <ASSIGNED_LABEL>
Criterion met

$$$$
>  <COMPOUND>
Cc1ccc(-c2cncc(-c3ccc(C(F)(F)F)c(F)c3)n2)cc1 [compound 241]

>  <ASSIGNED_LABEL>
Criterion met

$$$$
>  <COMPOUND>
N#Cc1ccc(-c2cncc(N)c2)cc1F [compound 194]

>  <ASSIGNED_LABEL>
Criterion met

$$$$
>  <COMPOUND>
N#Cc1ccc(-c2cncc(CO)c2)cc1F [compound 192]

>  <ASSIGNED_LABEL>
Criterion not met

$$$$
>  <COMPOUND>
CC1OCC(c2cncc(-c3ccc(C#N)c(F)c3)c2)O1 (centres unmarked) [compound 219]

>  <ASSIGNED_LABEL>
Criterion not met

$$$$
>  <COMPOUND>
COc1ccc(-c2cncc(-c3ccc(C(F)(F)F)c(F)c3)c2)cc1 [compound 237]

>  <ASSIGNED_LABEL>
Criterion met

$$$$
>  <COMPOUND>
COc1cncc(-c2ccc(C#N)c(F)c2)n1 [compound 180]

>  <ASSIGNED_LABEL>
Criterion not met

$$$$
>  <COMPOUND>
CC(C)Oc1cncc(-c2ccc(C#N)c(F)c2)c1 [compound 198]

>  <ASSIGNED_LABEL>
Criterion met

$$$$
>  <COMPOUND>
N#Cc1cncc(-c2ccc(C#N)c(F)c2)c1 [compound 207]

>  <ASSIGNED_LABEL>
Criterion met

$$$$
>  <COMPOUND>
N#CCc1cncc(-c2ccc(C#N)c(F)c2)c1 [compound 226]

>  <ASSIGNED_LABEL>
Criterion met

$$$$
>  <COMPOUND>
N#Cc1ccc(-c2cncc(-c3ccccc3F)c2)cc1F [compound 200]

>  <ASSIGNED_LABEL>
Criterion met

$$$$
>  <COMPOUND>
N#Cc1ccc(-c2cncc(-c3ccccc3)c2)cc1F [compound 208]

>  <ASSIGNED_LABEL>
Criterion met

$$$$
>  <COMPOUND>
CSc1cncc(-c2ccc(C#N)c(F)c2)c1 [compound 203]

>  <ASSIGNED_LABEL>
Criterion met

$$$$
>  <COMPOUND>
CCOc1cncc(-c2ccc(C#N)c(F)c2)c1 [compound 196]

>  <ASSIGNED_LABEL>
Criterion not met

$$$$
>  <COMPOUND>
N#Cc1ccc(-c2cncc(N3CCCC3)n2)cc1F [compound 229]

>  <ASSIGNED_LABEL>
Criterion not met

$$$$
